Test system: Ova-specific IgG
Assay: Ova-specific IgG titer (ELISA) in sera of mice immunized with Ovalbumin plus adjuvant
Format: in vivo
Conditions: intranasal (i.n.); Ovalbumin 30 μg + adjuvant 15 μg, days 0, 14, 28; sera 14 days after last immunization; FIG. 11
quantityKind: stimulation of antigen specific IgG production compared to control aßGalCerMPEG+ova

INSERT INTO results (molecule, observedvalue) VALUES
  ('CCCCCCCCCCCCCCCCCCCCCCCCCC(=O)N(CC(=O)NCCOCCOCCOCCOCCOC)[C@@H](CO[C@H]1OC(CO)[C@H](O)[C@H](O)C1O)[C@H](O)[C@H](O)CCCCCCCCCCCCCC (some centres unmarked)', 'at least equivalent'),
  ('CCCCCCCCCCCCCCCCCCCCCCCCCC(=O)N(CC(=O)NCCN1C(=O)c2cccc3c(N(C)C)ccc(c23)C1=O)[C@@H](CO[C@H]1OC(CO)[C@H](O)C(O)C1O)[C@H](O)[C@H](O)CCCCCCCCCCCCCC (some centres unmarked)', 'improved stimulation'),
  ('CCCCCCCCCCCCCCCCCCCCCCCCCC(=O)N(CC(=O)NC1CCCCC1)[C@@H](CO[C@H]1OC(CO)[C@H](O)C(O)C1O)[C@H](O)[C@H](O)CCCCCCCCCCCCCC (some centres unmarked)', 'improved stimulation'),
  ('CCCCCCCCCCCCCCCCCCCCCCCCCC(=O)N(CC(=O)NCCCc1ccccc1)[C@@H](CO[C@H]1OC(CO)[C@H](O)C(O)C1O)[C@H](O)[C@H](O)CCCCCCCCCCCCCC (some centres unmarked)', 'at least equivalent'),
  ('CCCCCCCCCCCCCCCCCCCCCCCCCC(=O)N(CC(=O)NCCCCCCN)[C@@H](CO[C@H]1OC(CO)[C@H](O)C(O)C1O)[C@H](O)[C@H](O)CCCCCCCCCCCCCC (some centres unmarked)', 'at least equivalent');
